Tested on: UACC-62
Experiment: NCI tumour cell line growth inhibition, 48 h
Calls of active or inactive are those of the source. Rule as the data show it: active = GI50 up to about 1.1 µM and inactive = higher.
Outcomes: true (1) (active), false (0) (inactive)

{"columns": ["compound", "classification"],
 "data": [
  ["CSc1nc(SC)c2c(C(N)=S)n[nH]c2n1", "false (0)"],
  ["CC(C)n1c2c([n+](C)c1/C=C/c1ccccc1)C(=O)c1ccccc1C2=O", "true (1)"],
  ["CC1(C)c2ccccc2C(O)C12CCC(=O)CC2 (stereo unspecified)", "false (0)"],
  ["c1ccc(C2=NN=C3C(c4ccccc4)=Nc4ccccc4N3C2)cc1", "false (0)"],
  ["COc1ccc(C(=O)CC(c2ccccc2)[C@H]2C(c3ccc(OC)cc3)=Nc3c(nc(SC)n(C)c3=O)NC2c2ccccc2)cc1 (stereo partly specified)", "false (0)"],
  ["Cc1cc(C)c(-c2no/c(=N\\S(=O)(=O)c3ccc(Cl)cc3)o2)c(C)c1", "false (0)"],
  ["N#CCCC1(CCC#N)CCCCCCCCC(CCC#N)(CCC#N)C(O)C1O (stereo unspecified)", "false (0)"],
  ["COc1ccc([N+](=O)[O-])c2c(NCCCN(C)C)ccnc12", "false (0)"],
  ["CCCCNC(=O)N/C=C1\\C(=O)Oc2ccccc2C1=O", "false (0)"],
  ["CCC(/C=C/c1ccccc1)=N\\N=C(\\C=C\\c1ccccc1)CC", "false (0)"],
  ["CCOP(=O)(OCC)C(c1ccccc1)N(C(=O)NC(F)(F)F)c1ccc(C)cc1 (stereo unspecified)", "false (0)"],
  ["CCOC(=O)C1C(c2ccc([N+](=O)[O-])cc2)NC(c2ccc([N+](=O)[O-])cc2)C(C(=O)OC)S1(=O)=O (stereo unspecified)", "false (0)"],
  ["OCC1NC(CO)C(O)C1O (stereo unspecified)", "false (0)"],
  ["COC(=O)C1=C(CCCCO[Si](C)(C)C(C)(C)C)NC(=O)N2[C@H](CCOCc3ccccc3)CC[C@@H]12", "false (0)"],
  ["COc1ccc(CCN2COc3ccc4ccc(=O)oc4c3C2)cc1OC", "false (0)"],
  ["O=C(c1ccccc1)c1c(-c2ccccc2)sc2nc3ccccc3nc12", "false (0)"],
  ["Cc1cc2c([nH]c3ccccc32)c2c1OC(C)(C)C1C3CC(C)(C)Oc4c(C)cc5c6ccccc6n(c5c43)C21 (stereo unspecified)", "false (0)"],
  ["CCN1CCC(O)(/C=C/c2ccc(OC)cc2)C(C(=O)/C=C/c2ccc(OC)cc2)C1 (stereo unspecified)", "false (0)"],
  ["COC(=O)C(=O)C(C#N)c1c(Cl)cccc1Cl (stereo unspecified)", "false (0)"],
  ["COC(=O)Cc1ccc(Oc2nc3ccccc3nc2-c2cccs2)cc1", "false (0)"],
  ["O=C1C=CC(=O)c2cc(Sc3ccccc3)c(=O)ccc21", "false (0)"]
]}

---

Tested on: LOX IMVI
Assay: NCI tumour cell line growth inhibition, 48 h
Activity calls are given as the source filed them. Rule as the data show it: active = GI50 up to about 1.1 µM and inactive = higher.
Outcomes: TRUE = active, FALSE = inactive

{"columns": ["molecule", "classification"],
 "data": [
  ["CC(C)C(C)/C=C\\C(C)C1CCC2C3=CC=C4CC(O)CCC4(C)C3CCC21C (stereo not given)", "FALSE"],
  ["O=C1C(c2ccc([N+](=O)[O-])cc2)=[N+]([O-])c2ccccc21", "FALSE"],
  ["CCOC(=O)/C(=C\\c1ccc(N(CCC#N)CCC#N)cc1)NC(=O)c1cc([N+](=O)[O-])ccc1Cl", "FALSE"],
  ["CCCCC1C=Cn2c(=O)oc3c(OC(C)C)c(C)c(O)c1c32 (stereo not given)", "TRUE"],
  ["c1ccc(C2(c3ccccc3)S/C(=C3/SC(c4ccccc4)(c4ccccc4)c4ccccc43)c3ccccc32)cc1", "FALSE"]
]}
